# measuredTarget: NIK/MAP3K14 (Homo sapiens (Human))
# Sequence (Q99558 whole entry): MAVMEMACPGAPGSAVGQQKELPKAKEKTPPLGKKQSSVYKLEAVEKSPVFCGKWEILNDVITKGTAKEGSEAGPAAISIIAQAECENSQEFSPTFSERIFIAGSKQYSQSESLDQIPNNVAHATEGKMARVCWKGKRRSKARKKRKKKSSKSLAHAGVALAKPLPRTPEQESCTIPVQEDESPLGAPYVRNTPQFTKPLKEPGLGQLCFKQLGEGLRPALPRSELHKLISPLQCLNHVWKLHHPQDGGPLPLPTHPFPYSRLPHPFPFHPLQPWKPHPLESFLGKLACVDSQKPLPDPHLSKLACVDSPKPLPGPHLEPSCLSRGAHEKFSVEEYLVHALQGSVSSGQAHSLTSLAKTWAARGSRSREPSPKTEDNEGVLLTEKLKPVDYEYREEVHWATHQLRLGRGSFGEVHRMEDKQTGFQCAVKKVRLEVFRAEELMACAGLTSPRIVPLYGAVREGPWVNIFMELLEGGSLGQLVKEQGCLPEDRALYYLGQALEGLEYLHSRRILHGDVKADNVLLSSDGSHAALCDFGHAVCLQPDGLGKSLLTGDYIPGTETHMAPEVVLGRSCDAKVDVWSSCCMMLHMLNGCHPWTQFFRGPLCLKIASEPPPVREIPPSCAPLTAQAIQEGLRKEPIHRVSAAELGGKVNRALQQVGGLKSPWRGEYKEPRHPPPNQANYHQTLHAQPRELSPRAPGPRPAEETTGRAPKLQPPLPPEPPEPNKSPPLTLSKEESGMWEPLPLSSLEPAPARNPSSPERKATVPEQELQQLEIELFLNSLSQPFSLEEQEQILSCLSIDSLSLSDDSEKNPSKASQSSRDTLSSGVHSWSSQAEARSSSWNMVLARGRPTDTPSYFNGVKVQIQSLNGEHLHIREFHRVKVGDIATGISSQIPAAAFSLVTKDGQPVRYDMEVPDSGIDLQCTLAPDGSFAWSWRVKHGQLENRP
# assayName: Inhibition of auto-phosphorylation of recombinant human NF-kappaB-inducing kinase (NIK/MAP3K14) activity (AlphaScreen)
# Type: biochemical
# recordedConditions: averaged values over all measurements on all batches, 25 microM ATP
Give IC50 for every item shown.
Express the result in nM but write the number alone.

Task item: IC50 for C[C@]1(CO)CNc2c(C#N)cc(-c3ccnc(Nc4cnn5c4OCCC5)n3)cc21 [Compound 14b] ?
Reply: 2

Task item: Entry CCc1c(Nc2nccc(-c3cc(C#N)c4c(c3)[C@@](C)(CO)CN4)n2)ccc2c1CCN(C(C)CO)C2 (stereo partly shown) [Compound 60] please
Reply: 4.8

Task item: What do we get for CN1CCc2ccc(Nc3nccc(-c4cc(C#N)c5c(c4)[C@@](C)(CO)CN5)n3)cc2C1 [Compound 31] ?
Reply: 1.4

Task item: Could you do the same for COc1nc2c(ccn2CC(=O)N(C)C)cc1Nc1nccc(-c2cc(C#N)c3c(c2)[C@@](C)(CO)CN3)n1 [Compound 10c] , please?
Reply: 4.3

Task item: Next entry: CNC(=O)CN1CCc2c(Nc3nccc(-c4cc(C#N)c5c(c4)C(C)(CO)CN5)n3)cc(Cl)cc21 (stereo not shown) [Compound 14]
Reply: 3

Task item: How about this compound: COc1cc2c(cc1Nc1nccc(-c3cc(C#N)c4c(c3)C(C)(CO)CN4)n1)NC(=O)CC2 (stereo not shown) [Compound 59]
Reply: 12.9

Task item: Would you mind doing CC1(C)Cn2nc(Nc3nccc(-c4cc(C#N)c5c(c4)C(C)(CO)CN5)n3)cc2CO1 (stereo not shown) [Compound 10b] as well?
Reply: 9.6

---

# measuredTarget: NIK/MAP3K14 (Homo sapiens (Human))
# assayName: Inhibition of auto-phosphorylation of recombinant human NF-kappaB-inducing kinase (NIK/MAP3K14) activity (AlphaScreen)
# Assay type: biochemical
# recordedConditions: averaged values over all measurements on all batches, 25 microM ATP
metric: IC50
Output should be the measured figure followed by the unit it is expressed in.

Task item: Which IC50 reading was recorded for the molecule CN1CCc2nc(OCC3CC3)c(Nc3nccc(-c4cc(C#N)c5c(c4)[C@@](C)(CO)CN5)n3)cc2C1 [Compound 35] ?
Reply: 4.3 nM

Task item: Also CC1CCn2ncc(Nc3nccc(-c4cc(C#N)c5c(c4)[C@@](C)(CO)CN5)n3)c2O1 (single isomer, unassigned) [Compound 1b] ?
Reply: 2.8 nM

Task item: Now give it for CC(C)C1CCn2ncc(Nc3nccc(-c4cc(C#N)c5c(c4)[C@@](C)(CO)CN5)n3)c2O1 (single isomer, unassigned) [Compound 23b] too.
Reply: 6.9 nM

Task item: Next: CN1CCc2[nH]c(=O)c(Nc3nccc(-c4cc(C#N)c5c(c4)C(C)(CC(F)F)CN5)n3)cc2C1 (centres unmarked) [Compound 57]
Reply: 17.4 nM

Task item: Do the same for C[C@]1(CO)CNc2c(C#N)cc(-c3ccnc(Nc4cc5c(nc4C#CC4CC4)CCOC5)n3)cc21 [Compound 22] please
Reply: 2240 nM

Task item: Another molecule to check: CN1CCc2cc(Nc3nccc(-c4cc(C#N)c5c(c4)[C@@](C)(CO)CN5)n3)ccc2C1 [Compound 30]
Reply: 0.8 nM

Task item: Check CC(C)N1CCn2ncc(Nc3nccc(-c4cc(C#N)c5c(c4)[C@@](C)(CO)CN5)n3)c2C1=O [Compound 17b] too.
Reply: 3 nM

Task item: Next molecule: CN1CCc2ncc(Nc3nccc(-c4cc(C#N)c5c(c4)[C@@](C)(CO)CN5)n3)cc2C1 [Compound 29]
Reply: 3.4 nM

Task item: Quick one: CC(C)CN1CCn2ncc(Nc3nccc(-c4cc(C#N)c5c(c4)[C@@](C)(CO)CN5)n3)c2C1=O [Compound 27b]
Reply: 4.47 nM

Task item: Could you do the same for Cc1c(Nc2nccc(-c3cc(C#N)c4c(c3)[C@@](C)(CO)CN4)n2)cc(Cl)c2c1CCN2C(=O)CN(C)C [Compound 16] , please?
Reply: 1.6 nM

Task item: Now the same for CC(C)Oc1nc2c(cc1Nc1nccc(-c3cc(C#N)c4c(c3)[C@@](C)(CO)CN4)n1)CN(C1CC1)CC2 [Compound 49]
Reply: 34.7 nM

Task item: Another: C[C@]1(CO)CNc2c(C#N)cc(-c3ccnc(Nc4cc5c(nc4CCC4CC4)CCOC5)n3)cc21 [Compound 21]
Reply: 3 nM

Task item: // query: CC(C)N1CCn2ncc(Nc3nccc(-c4cc(C#N)c5c(c4)[C@@](C)(CO)CN5)n3)c2C1 [Compound 18b]
Reply: 6.2 nM

Task item: Query CNC(=O)c1cc(Nc2nccc(-c3cc(C#N)c4c(c3)[C@@](C)(CO)CN4)n2)c(=O)n2c1CCC2 [Compound 44] next
Reply: 4.5 nM
